- target: Protein deacetylase HDAC6 (Homo sapiens)
- Sequence (whole entry): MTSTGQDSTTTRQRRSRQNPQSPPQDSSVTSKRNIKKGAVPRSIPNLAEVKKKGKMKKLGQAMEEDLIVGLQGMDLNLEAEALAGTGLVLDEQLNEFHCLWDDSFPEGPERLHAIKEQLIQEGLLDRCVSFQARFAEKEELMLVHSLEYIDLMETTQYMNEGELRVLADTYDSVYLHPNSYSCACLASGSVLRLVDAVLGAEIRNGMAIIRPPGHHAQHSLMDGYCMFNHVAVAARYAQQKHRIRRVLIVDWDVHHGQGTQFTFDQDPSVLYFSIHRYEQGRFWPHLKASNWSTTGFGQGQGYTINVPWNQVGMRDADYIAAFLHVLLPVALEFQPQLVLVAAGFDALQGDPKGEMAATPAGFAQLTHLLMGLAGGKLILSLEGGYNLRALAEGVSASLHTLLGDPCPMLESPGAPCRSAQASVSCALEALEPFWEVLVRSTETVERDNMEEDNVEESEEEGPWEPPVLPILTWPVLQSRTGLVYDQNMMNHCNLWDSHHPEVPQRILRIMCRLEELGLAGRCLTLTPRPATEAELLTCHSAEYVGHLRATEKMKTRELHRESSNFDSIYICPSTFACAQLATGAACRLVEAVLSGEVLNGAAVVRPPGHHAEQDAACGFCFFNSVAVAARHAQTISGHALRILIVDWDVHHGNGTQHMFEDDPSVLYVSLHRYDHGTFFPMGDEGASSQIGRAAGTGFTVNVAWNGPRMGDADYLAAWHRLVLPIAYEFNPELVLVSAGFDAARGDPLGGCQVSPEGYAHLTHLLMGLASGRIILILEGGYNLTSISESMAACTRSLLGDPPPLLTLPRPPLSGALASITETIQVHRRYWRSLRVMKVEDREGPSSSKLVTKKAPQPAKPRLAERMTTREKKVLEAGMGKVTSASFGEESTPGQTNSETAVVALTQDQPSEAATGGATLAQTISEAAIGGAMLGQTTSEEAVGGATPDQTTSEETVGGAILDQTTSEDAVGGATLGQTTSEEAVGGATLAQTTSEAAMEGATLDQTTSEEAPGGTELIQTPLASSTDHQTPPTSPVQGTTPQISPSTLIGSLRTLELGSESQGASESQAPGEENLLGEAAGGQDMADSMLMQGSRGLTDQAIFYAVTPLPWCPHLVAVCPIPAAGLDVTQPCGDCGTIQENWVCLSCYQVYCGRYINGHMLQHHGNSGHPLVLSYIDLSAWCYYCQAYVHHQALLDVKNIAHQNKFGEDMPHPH
- protocol-details: Inhibition of HDAC6 in human HeLa cells assessed as increase in acetylated alpha-tubulin measured after 24 hrs by Western blotting analysis
- Format: cell-based
Active and inactive are the calls of the source. The calls are words filed in the database; no cut-off is given here.
observable: inhibition

{"columns": ["compound", "result"],
 "data": [
  ["O=C(NO)C1=CCCCC1", "Active"],
  ["O=C(NO)c1ccccc1 [BENZOHYDROXAMATE]", "Active"],
  ["CNC(=O)c1ccc(C(=O)NO)cc1", "Active"]
]}
